molecular target: Human recombinant LSD1 protein (Homo sapiens (Human), UniProt O60341); assay: LSD1 inhibition, Amplex Red peroxide/peroxidase-coupled assay with di-methylated H3-K4 peptide; format: biochemical
Structures can show the parent of a compound that is named as a salt.
READOUT LABEL: Ki

Query: Bench note: what Ki did Brc1cccc(COc2ccc([C@H]3C[C@@H]3NCCC3CCCCC3)cc2)c1 (relative stereo) [Example 15, hydrochloride] show?
Reply: 100 to 1000 nM

* * *

Below: a set of entries, each annotated with reported pKi.
molecular target: Human recombinant LSD1 protein (Homo sapiens (Human)); test: LSD1 inhibition, Amplex Red peroxide/peroxidase-coupled assay with di-methylated H3-K4 peptide; type: biochemical; conditions: Ki (IC50) at half of the maximum activity; two ranges listed = near the boundary; read-out: LSD1 (Ki)
pKi: −log10 of the molar value. Structures can show the parent of a compound that is named as a salt.

c1ccc([C@H]2C[C@@H]2NCCC2CCCCCC2)cc1 (relative stereo) [Example 14, hydrochloride]: 6.00 to 7.00
COc1ccc2c(c1)C(N[C@@H]1C[C@H]1c1ccc(OCc3ccccc3)cc1)CCC2 (relative stereo): 6.00 to 7.00
COc1ccc2c(c1)C(N[C@H]1CC1c1ccc(OCc3cccc(Br)c3)cc1)CC2 (stereo in doubt) [Example 16, hydrochloride]: 6.00 to 7.00

Query: Bench note: what pKi did Clc1ccc2c(c1)C(N[C@H]1CC1c1ccccc1)CC2 (stereo in doubt) [Example 6, hydrochloride] show?
Reply: 6.00 to 7.00

Query: Try c1ccc([C@H]2C[C@@H]2NCCCC2CCCCC2)cc1 (relative stereo) [Example 13, hydrochloride] next.
Reply: 6.00 to 7.00

Query: Try COc1ccc2c(c1)C(N[C@H]1CC1c1ccccc1)CCC2 (stereo in doubt) next.
Reply: 6.00 to 7.00
